Data credit: patent US20230381112A1

Below, each entry is listed with its recorded DH^37° C..
Protocol Text: DLS temperature sweep in PBS: hydrodynamic diameter (DH), transition temperature (Ttr), solubility/aggregation
Assay type: physicochemical
Test Context: hydrodynamic diameter at 37° C.; PBS at 0.5 mg/mL
Could you kindly put the unit after your number?

Worked cases, answers included:
1) CN-p[(NIPMAM)f1-co-(BnMAM)f2]-b-p(HPMA)a-PEG4-Ova [Compound 293] | 41.1 nm
2) CN-p[(NIPMAM)f1-co-(BnMAM)f2]-b-p(HPMA)a-PEG4-Ova [Compound 291] | 40.4 nm
3) CN-p[(NIPMAM)f1-co-(BnMAM)f2]-b-p(HPMA)a-PEG4-Ova [Compound 292] | 36.5 nm

Read the next record carefully.
Ask: Return DH^37° C. (reported value) for this substance: CN-p[(NIPMAM)f1-co-(BnMAM)f2]-b-p(HPMA)a-pip-diABZI [Compound 290]
Reply: 25.3 nm

---

Protocol Text: DLS temperature sweep in PBS: hydrodynamic diameter (DH), transition temperature (Ttr), solubility/aggregation
Type: physicochemical
Test Context: drug conjugate polymers; PBS at 0.5 mg/mL
Quantity Name: Ttr (°C)
Provide only the numeric value, understood in °C.

Worked cases, answers included:
1) CN-p[(NIPMAM)f1-co-(BnMAM)f2]-b-p(HPMA)a-PEG4-Ova [Compound 291] | 28
2) CN-p[(NIPMAM)f1-co-(BnMAM)f2]-b-p(HPMA)a-pip-diABZI [Compound 290] | 31
3) CN-p[(NIPMAM)f1-co-(BnMAM)f2]-b-p(HPMA)a-PEG4-Ova [Compound 292] | 32

Read the next record carefully.
Ask: Return Ttr (reported value) for this substance: CN-p[(NIPMAM)f1-co-(BnMAM)f2]-b-p(HPMA)a-PEG4-Ova [Compound 293]
Reply: 29

---

Below, each entry is listed with its recorded DH^20° C..
Protocol Text: DLS temperature sweep in PBS: hydrodynamic diameter (DH), transition temperature (Ttr), solubility/aggregation
Format: physicochemical
Test Context: hydrodynamic diameter at 20° C.; PBS at 0.5 mg/mL
Provide only the numeric value, understood in nm.

1. CN-p[(NIPMAM)f1-co-(BnMAM)f2]-b-p(HPMA)a-PEG4-Ova [Compound 292] | 6.1
2. CN-p[(NIPMAM)f1-co-(BnMAM)f2]-b-p(HPMA)a-PEG4-Ova [Compound 291] | 7.4
3. CN-p[(NIPMAM)f1-co-(BnMAM)f2]-b-p(HPMA)a-PEG4-Ova [Compound 293] | 5.7

Read the next record carefully.
Ask: Return DH^20° C. (reported value) for this substance: CN-p[(NIPMAM)f1-co-(BnMAM)f2]-b-p(HPMA)a-pip-diABZI [Compound 290]
Reply: 15.3
